System: ATP;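 also: ATP exposure 15 min at 22 °C before imaging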
assay.text: switch fluorescence ratio, 500 uM ATP over buffer (Cy3 cluster intensity, sum of 5 cycles each) (fold (ratio)); higher = stronger signal-on switching upon ATP binding; sequences stand for … in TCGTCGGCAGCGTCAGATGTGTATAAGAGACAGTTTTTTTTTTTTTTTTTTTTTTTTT…TC
condition: aptamer strand: ATP DNA aptamer (quencher-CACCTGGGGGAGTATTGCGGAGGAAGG + anchor), 100 nM annealed; ATP concentration: 500 uM
Please go through the items and note down their switch fluorescence ratio.
// no unit, no text: just the number

Item `GCAACCCTAA` : provide switch fluorescence ratio
1.02

Item `TCTTGTAATC` : provide switch fluorescence ratio
1.07

Item `GGCCTGTTTT` : provide switch fluorescence ratio
1.09

Item `CGAGGTCAGT` : provide switch fluorescence ratio
1.04

Item `CGGTCTGGGG` : provide switch fluorescence ratio
0.981

Item `TCCGGTATCG` : provide switch fluorescence ratio
1.04

Item `TAAGGAGAAT` : provide switch fluorescence ratio
0.968

Item `ATGTTACATT` : provide switch fluorescence ratio
1.01

Item `GATATAGGGT` : provide switch fluorescence ratio
0.983

Item `CGTTTGTCTA` : provide switch fluorescence ratio
1.01

Item `GCTTCAAGTC` : provide switch fluorescence ratio
0.978

Item `AATTTAGAGT` : provide switch fluorescence ratio
1

Item `CATCGGCAAG` : provide switch fluorescence ratio
5.75

Item `TTAATGGTTT` : provide switch fluorescence ratio
1.11

Item `AAGAGCGGGA` : provide switch fluorescence ratio
0.989

Item `CATAGGCTAC` : provide switch fluorescence ratio
1.6

Item `TGCCTCGGGG` : provide switch fluorescence ratio
1.04

Item `AAATGTTCAC` : provide switch fluorescence ratio
0.996

Item `GAAGGCGGAT` : provide switch fluorescence ratio
1.01

Item `CTTTGAAGAG` : provide switch fluorescence ratio
1.02

Item `TGCTGGGTGG` : provide switch fluorescence ratio
1.01

Item `AGGGAAGGAA` : provide switch fluorescence ratio
1.01

Item `CTTGGGTCTG` : provide switch fluorescence ratio
1

Item `CATTCCGAGA` : provide switch fluorescence ratio
1.4

Item `GGGTATCTTG` : provide switch fluorescence ratio
1

Item `ACATTCGGGC` : provide switch fluorescence ratio
1.02

Item `TGCTGTTAAT` : provide switch fluorescence ratio
0.983

Item `GTCTCTGGGG` : provide switch fluorescence ratio
1.08

Item `TGTTTCCATG` : provide switch fluorescence ratio
0.988

Item `GGGTTAATTG` : provide switch fluorescence ratio
0.983

Item `TCAATTAGGC` : provide switch fluorescence ratio
1.05

Item `GTTGGGGTCA` : provide switch fluorescence ratio
0.988

Item `TTTCTTGTCT` : provide switch fluorescence ratio
1.01

Item `AGGTTAGACG` : provide switch fluorescence ratio
1.01

Item `CTTTTATGGG` : provide switch fluorescence ratio
0.993

Item `TATAAGAAAA` : provide switch fluorescence ratio
0.978

Item `AGTGGAATGC` : provide switch fluorescence ratio
1.12

Item `GGTGGTGGCG` : provide switch fluorescence ratio
1.01

Item `TGCAGGCTGC` : provide switch fluorescence ratio
0.989

Item `TTTGGATATT` : provide switch fluorescence ratio
1.03

Item `GAAATAAATA` : provide switch fluorescence ratio
0.984

Item `CCGATGTGTC` : provide switch fluorescence ratio
2.42

Item `GAGGGTAGTC` : provide switch fluorescence ratio
1

----------
Please go through the items and note down their switch fluorescence ratio.
Test system: ATP;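 also: ATP exposure 15 min at 22 °C before imaging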
assay.text: switch fluorescence ratio, 500 uM ATP over buffer (Cy3 cluster intensity, sum of 5 cycles each) (fold (ratio)); higher = stronger signal-on switching upon ATP binding; sequences stand for … in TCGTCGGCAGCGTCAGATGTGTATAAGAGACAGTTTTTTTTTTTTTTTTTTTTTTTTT…TC
condition: aptamer strand: ATP DNA aptamer (quencher-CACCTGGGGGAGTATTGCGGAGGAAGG + anchor), 100 nM annealed; ATP concentration: 500 uM
// no unit, no text: just the number

Item `CGATGTAGTA` : provide switch fluorescence ratio
1.02

Item `CCCTTGGATA` : provide switch fluorescence ratio
0.993

Item `CATATTTCCA` : provide switch fluorescence ratio
0.99

Item `ACGGGGAGGC` : provide switch fluorescence ratio
1.07

Item `AATGCTGACA` : provide switch fluorescence ratio
1

Item `TGGTGGAGCA` : provide switch fluorescence ratio
0.986

Item `GCATTTCTTC` : provide switch fluorescence ratio
1.03

Item `ACCGTTGGTT` : provide switch fluorescence ratio
1.02

Item `AAATTATCGG` : provide switch fluorescence ratio
1

Item `ATGGGTCAGT` : provide switch fluorescence ratio
0.987

Item `CTGGTATTAT` : provide switch fluorescence ratio
1.02

Item `TTGTTCGCCT` : provide switch fluorescence ratio
1.02

Item `TAAGGGTGGC` : provide switch fluorescence ratio
1.04

Item `GCATTCGGTT` : provide switch fluorescence ratio
0.972

Item `GCTAAAGTCT` : provide switch fluorescence ratio
1.04

Item `GACAGAGCCA` : provide switch fluorescence ratio
1.1

Item `GCTCCGATAG` : provide switch fluorescence ratio
5.2

Item `TGCGAGGTTG` : provide switch fluorescence ratio
1.01

Item `CGGACGTTGG` : provide switch fluorescence ratio
0.973

Item `TGAGCTGGGT` : provide switch fluorescence ratio
0.995

Item `CCGAGGAAGC` : provide switch fluorescence ratio
1.34

Item `AATATCGGGA` : provide switch fluorescence ratio
0.983

Item `TTTATGAGT` : provide switch fluorescence ratio
0.987

Item `GGCACACAGT` : provide switch fluorescence ratio
1

Item `AGATTTTTTG` : provide switch fluorescence ratio
0.993

Item `AAAGTGGTGT` : provide switch fluorescence ratio
0.984

Item `ACCGGGTGCA` : provide switch fluorescence ratio
1.36

Item `GCCTTGCCTT` : provide switch fluorescence ratio
1.03

Item `GCACGTGCAG` : provide switch fluorescence ratio
0.996

Item `CTGGGACAGT` : provide switch fluorescence ratio
0.995

Item `GGCACGAGGA` : provide switch fluorescence ratio
1.04

Item `GGGCTAAGGG` : provide switch fluorescence ratio
0.985

Item `AGAGGATTTG` : provide switch fluorescence ratio
1.02

Item `TAGTCATGAG` : provide switch fluorescence ratio
0.981

Item `GCAACAGCAA` : provide switch fluorescence ratio
1.04

Item `TTAAGTTTGT` : provide switch fluorescence ratio
0.994

Item `TACGGGAGCT` : provide switch fluorescence ratio
1.05

Item `TGGGGGTCGG` : provide switch fluorescence ratio
1.03

Item `CGAGGTGGCG` : provide switch fluorescence ratio
0.958

Item `TTAAAAATGT` : provide switch fluorescence ratio
0.958

Item `CATCGCGGAC` : provide switch fluorescence ratio
3.88

Item `GCTGATACGG` : provide switch fluorescence ratio
1.07

Item `GATTAAATAT` : provide switch fluorescence ratio
1.02

----------
Tested on: ATP;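 also: ATP exposure 15 min at 22 °C before imaging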
assay.text: switch fluorescence ratio, 500 uM ATP over buffer (Cy3 cluster intensity, sum of 5 cycles each) (fold (ratio)); higher = stronger signal-on switching upon ATP binding; sequences stand for … in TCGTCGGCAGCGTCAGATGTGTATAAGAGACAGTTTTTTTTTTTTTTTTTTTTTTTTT…TC
condition: aptamer strand: ATP DNA aptamer (quencher-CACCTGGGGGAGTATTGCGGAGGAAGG + anchor), 100 nM annealed; ATP concentration: 500 uM
Please go through the items and note down their switch fluorescence ratio.

Item `TTCTGATTAT` : provide switch fluorescence ratio
1

Item `GGGTGTTTAG` : provide switch fluorescence ratio
1.01

Item `AAAGAAGAGA` : provide switch fluorescence ratio
1.02

Item `AGTTGCGTTA` : provide switch fluorescence ratio
0.963

Item `TAAGCGATCT` : provide switch fluorescence ratio
1.02

Item `TGTTTGAAAA` : provide switch fluorescence ratio
0.953

Item `TTTGGTTGGG` : provide switch fluorescence ratio
1.03

Item `GCGGCTTCGT` : provide switch fluorescence ratio
1.02

Item `GAAGTTCGAG` : provide switch fluorescence ratio
0.998

Item `TAGTGGCTTA` : provide switch fluorescence ratio
0.98

Item `TACGTGGGGT` : provide switch fluorescence ratio
1.01

Item `GGGGTGTGAG` : provide switch fluorescence ratio
0.989

Item `ACATCCTTCG` : provide switch fluorescence ratio
1.7

Item `TCGAGTTGTT` : provide switch fluorescence ratio
0.988

Item `GTGGTAGGTA` : provide switch fluorescence ratio
0.998

Item `CGGGGGGTAA` : provide switch fluorescence ratio
1.01

Item `CCTATTGGGT` : provide switch fluorescence ratio
1.02

Item `GGGTTTAATT` : provide switch fluorescence ratio
0.999

Item `GTTGGCGGGA` : provide switch fluorescence ratio
1.02

Item `CACAGGCCAA` : provide switch fluorescence ratio
1.2
